- method summary: protein stability index of a GFP-peptide fusion (yeast GPS) (PSI 1-4); higher = more stable; sorted into four equal gates, so the index is relative within each strain
- assay setup: pdr5∆
Classification field: enter TRUE for protein stability index values not below 3, FALSE for values below it.

sequence chain	label
ICEDPETAKKITFHPKI [SMC2]	FALSE
ANLPANSSTSPAPSIPS [YLR335W/NUP2]	TRUE
SLSDELNLDEIVACELI [YJL039C/NUP192]	FALSE
NGLLNEISRLKTSLSIK [SMC2]	TRUE
CLEACSFILSSLEDPQV [YDL116W/NUP84]	FALSE
KTCAEVIGGNSLFHIVV [SMC3]	TRUE
CGHRILLKARTKRLVQF [RPC10]	FALSE
VHTIIAGLDEDGKGAVY [PRE7]	TRUE
ENLVVADLESFANNHFL [COR1]	FALSE
MSEEQDPLLAGLGETSG [RPT4]	TRUE
NAVTAAAANNNIKPVEQ [GAL11]	FALSE
GEKTLSSLALVFALHKY [SMC4]	FALSE
DFILSLLHHVSELDSND [YJL039C/NUP192]	FALSE
SLTYKKISLRDICLKLN [RPN3]	FALSE
FEAQIDSVEFIFQAKRN [RPN10]	FALSE
EQVKDDGTSTEKTFLHL [RPN8]	TRUE
NYKGLPKKYKENNTDSA [SMC1]	TRUE
KALVLFVPVPALSAYHK [RPS7B]	FALSE
GSEEKAFVPKKRKTNII [SRP54]	TRUE
TELKKITDKTIKAFMDS [IRR1]	FALSE
EAINGFKDETISKKIIG [SIR3]	TRUE
VAAKWNTSLISLFTYFR [PRP8]	FALSE
SHVENLEEKLYQMQSNY [YIL149C/MLP2]	FALSE
DRFPLKLREPVARFLHF [ITC1]	FALSE
DADTEDPHSASLINSHL [RPC82]	TRUE
LTKKYSFKIFVDVLVIS [RRP42]	FALSE
STKTGTPSDLSESGSKL [POP1]	TRUE
LKIQFILSTTLDPTDDE [SIN4]	FALSE
MTRSSVLADALNAINNA [RPS22A]	TRUE
AYHQKYVDEQSKNELKK [RPS16A]	FALSE
EVTDKNYYYLFDKKSFF [PRP8]	FALSE
WLLHNGFSTGIGDTIAD [RPO21]	TRUE
LIESGIGTHHAGLTRSD [BRR2]	TRUE
DALKVVLRTALVHDGLA [RPS12]	FALSE
AKIYPGRGTLFVRGDSK [RPL24A]	FALSE
RQREMAEEQTKLQSQSL [YLR018C/POM34]	TRUE
TVLCTPTGGKAKLSEGT [RPS27B]	TRUE
WLAAATATGIKVFSLDP [ASC1]	FALSE
SHTGLVRKYDLNICRQC [RPS29B]	FALSE
TQAIADIVQYHLELYTS [PRE3]	FALSE
YSTCPSETDLNDIPLGS [SRB8]	FALSE
QARMMQQQSADHDDSTD [NSL1]	FALSE
QRKEIKDRISSCSSKEK [SMC4]	FALSE
LFVISTEISPMAGSQFE [RRP45]	FALSE
LWELALAFIPNILALNL [YML031W/NDC1]	FALSE
